- system: HMG-CoA reductase (Rattus norvegicus, UniProt P51639)
- Construct: solubilized enzyme preparations from liver microsomes of rats
- Sequence (P51639 whole entry): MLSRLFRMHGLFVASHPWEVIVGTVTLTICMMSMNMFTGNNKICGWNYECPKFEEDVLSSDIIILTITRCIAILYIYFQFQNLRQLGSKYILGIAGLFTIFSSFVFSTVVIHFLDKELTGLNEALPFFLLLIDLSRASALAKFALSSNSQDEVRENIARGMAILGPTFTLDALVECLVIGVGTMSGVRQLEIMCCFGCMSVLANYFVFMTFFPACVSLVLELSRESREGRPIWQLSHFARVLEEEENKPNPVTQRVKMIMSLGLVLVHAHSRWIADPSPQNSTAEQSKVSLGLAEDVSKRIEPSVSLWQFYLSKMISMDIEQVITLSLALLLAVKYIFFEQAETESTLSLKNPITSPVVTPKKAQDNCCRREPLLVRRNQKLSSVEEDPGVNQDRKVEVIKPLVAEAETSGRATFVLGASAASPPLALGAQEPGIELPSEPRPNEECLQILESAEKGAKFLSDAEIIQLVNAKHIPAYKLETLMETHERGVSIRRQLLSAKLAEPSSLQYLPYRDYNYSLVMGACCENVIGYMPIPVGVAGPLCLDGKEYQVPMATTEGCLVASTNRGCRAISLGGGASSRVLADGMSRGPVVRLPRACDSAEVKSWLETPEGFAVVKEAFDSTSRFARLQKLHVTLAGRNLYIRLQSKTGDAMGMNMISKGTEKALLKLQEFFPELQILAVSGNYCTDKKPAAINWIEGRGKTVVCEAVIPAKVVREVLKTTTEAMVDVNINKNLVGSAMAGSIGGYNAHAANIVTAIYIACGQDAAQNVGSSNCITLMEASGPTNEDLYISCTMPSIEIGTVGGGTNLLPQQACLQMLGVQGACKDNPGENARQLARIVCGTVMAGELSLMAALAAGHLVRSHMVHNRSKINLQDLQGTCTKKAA
- test summary: HMG-CoA reductase activity in enzyme preparations (solubilized enzyme from liver microsomes of rats)
- details: (SmR) 14C-HMG-CoA substrate
Each entry below carries its reported IC50.
metric name: IC50 (nM)

[[record]]
molecule = "CC(C)C(C#C[C@@H](O)C[C@@H](O)CC(=O)O)=C(c1ccc(F)cc1)c1ccc(F)cc1 (relative stereo) [Example 7l]"
metric_name = "IC50"
test_result = 5.7

[[record]]
molecule = "CC(C)c1nc(-c2ccccc2)cc(-c2ccc(F)cc2)c1C#C[C@@H](O)C[C@@H](O)CC(=O)O (relative stereo) [Example 7a]"
metric_name = "IC50"
test_result = 3

